Entries annotated with measured pIC50
Tested on: SARS-CoV-2
Experiment: microbe, parasite or virus in culture
Assay type: functional, organism-based, Chlorocebus sabaeus, Vero C1008
Conditions: Severe acute respiratory syndrome coronavirus 2, Vero C1008, 48 h
Square brackets hold non-standard residues; d marks the D form. Peptide text beside a SMILES is read from it. * marks the point of attachment. dPhe(4-NHCONH2) = NC(=O)Nc1ccc(C[C@@H](N)C(=O)O)cc1; Dihydroorotyl(S) = O=C1C[C@@H](C(=O)*)NC(=O)N1; dPhe(4-Cl) = N[C@H](Cc1ccc(Cl)cc1)C(=O)O; Phe(4-NH2) = Nc1ccc(C[C@H](N)C(=O)O)cc1; d2Nal = N[C@H](Cc1ccc2ccccc2c1)C(=O)O; Lys(iPr) = CC(C)NCCCC[C@H](N)C(=O)O; d3Pal = N[C@H](Cc1cccnc1)C(=O)O
Please note pIC50 is a logarithmic value: minus log10 of concentration in mol/L. Answer with that number alone.

Some solved cases for reference:
# compound, valueMeasured
records = [
    ("COc1cc(C[C@H]2c3cc(OC)c(OC)cc3CCN2C)c(Oc2cc3c(cc2OC)-c2c(OC)c(OC)cc4c2[C@H](C3)N(C)CC4)cc1OC", 5.41),
    ("CC(=O)N[C@H](Cc1ccc2ccccc2c1)C(=O)N[C@H](Cc1ccc(Cl)cc1)C(=O)N[C@H](Cc1cccnc1)C(=O)N[C@@H](CO)C(=O)N[C@@H](Cc1ccc(NC(=O)[C@@H]2CC(=O)NC(=O)N2)cc1)C(=O)N[C@H](Cc1ccc(NC(N)=O)cc1)C(=O)N[C@@H](CC(C)C)C(=O)N[C@@H](CCCCNC(C)C)C(=O)N1CCC[C@H]1C(=O)N[C@H](C)C(N)=O [DEGARELIX] (Ac-[d2Nal][dPhe(4-Cl)][d3Pal]S[Phe(4-NH2)](Dihydroorotyl(S))[dPhe(4-NHCONH2)]L[Lys(iPr)]P[dA]-NH2)", 4.69),
    ("c1ccc(-c2ccc(CNc3nc(-c4ccccn4)nnc3-c3ccccc3)cc2)cc1", 4.50),
    ("Cc1[nH]c(/C=C2\\C(=O)Nc3ccc(S(=O)(=O)N(C)c4cccc(Cl)c4)cc32)c(C)c1C(=O)N1CCN(C)CC1", 4.96),
    ("COc1ccc(C[C@H]2NC[C@H](O)[C@H]2OC(C)=O)cc1", 7.05),
    ("CCCCn1c(NC(=O)c2cccs2)c(C#N)c2nc3ccccc3nc21", 4.71),
]

// moving on: another record for pIC50
Query block: Query: pIC50; subject: "COc1ccc(CNc2nc(N(CCO)CCO)nc3c2ncn3C(C)C)cc1"
Result block: 5.10

====

Experiment: in vitro
Settings: chlorocebus sabaeus, VERO-E6 cells (Vero C1008), uninfected, CC50
Entries annotated with measured CC50 at 48 h
Could you give me the number in µM? Just the number is fine.

# compound, valueMeasured
rows = [
    ("COc1cc2ncnc(Nc3cccc(Br)c3)c2cc1OC", 13.2),
]

Query block: Query: CC50 at 48 h; subject: "CC(C)(C)c1cc(C=C(C#N)C#N)cc(Br)c1O"
Result block: 10.4

Query block: Query: CC50 at 48 h; subject: Oc1c(Cl)cc(Cl)cc1Sc1cc(Cl)cc(Cl)c1O [BITHIONOL]
Result block: 9.94
